Biological target: T1, human SIRPA_V10 (human, UniProt P78324 31-504)
T1 construct: FLAG-tagged (pFLAG V5-DEST), on 293α cells; also called human SIRPA Variant 10
T1 sequence (P78324 other isoform, or with tags, fused parts or gaps limits assumed): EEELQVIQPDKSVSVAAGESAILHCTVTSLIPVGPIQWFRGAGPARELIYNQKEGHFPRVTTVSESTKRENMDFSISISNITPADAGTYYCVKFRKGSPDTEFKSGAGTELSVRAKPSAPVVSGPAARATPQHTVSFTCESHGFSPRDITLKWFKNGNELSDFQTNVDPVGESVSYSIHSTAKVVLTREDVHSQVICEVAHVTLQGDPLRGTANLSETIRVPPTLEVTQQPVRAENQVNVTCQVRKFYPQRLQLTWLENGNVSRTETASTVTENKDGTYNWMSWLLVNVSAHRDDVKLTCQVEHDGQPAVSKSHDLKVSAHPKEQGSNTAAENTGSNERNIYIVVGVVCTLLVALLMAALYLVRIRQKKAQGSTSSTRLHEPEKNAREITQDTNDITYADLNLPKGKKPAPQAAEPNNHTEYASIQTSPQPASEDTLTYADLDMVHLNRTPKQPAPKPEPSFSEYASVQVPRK
Assay: cell-based ELISA on 293α cells expressing FLAG-tagged SIRPA_V10; Abs 490 normalized to FLAG tag [ii]
Here the recorded EC50 (read off the curve) is given for each entry.

Worked examples follow.
binder | experimental_readout | reported_value
humanized anti-SIRPA antibody hD13_H2L2 (antibody, human IgG4 S228P, kappa, F234A L235A, V domains shown, hH2 heavy chain (IgG4proFALA) and hL2 kappa light chain; also called H2L2 antibody) VH: EVQLVESGGGVVQPGRSLRLSCAASGFTFSDYGMIWVRQAPGKGLEWVASISSSSSYIYYADSVKGRFTISRDNSKNTLYLQMNSLRAEDTAVYYCARRYYGFNYPFDYWGQGTMVTVSS VL: AIQLTQSPSSLSASVGQRVTITCGASKSVRTYMHWYQQKPGKAPKLLIYSASNLEAGVPSRFSGSGSGTDFTLTISSLQPEDFATYYCQQSNEPPYTFGQGTKLEIKR | EC50 (read off the curve) | ~0.03 µg/mL
humanized anti-SIRPA antibody hD13_H1L3 (antibody, human IgG4 S228P, kappa, F234A L235A, V domains shown, hH1 heavy chain (IgG4proFALA) and hL3 kappa light chain; also called hD13_HIL3; HIL3 antibody) VH: QVQLVESGGGVVQPGRSLRLSCAASGFTFSDYGMIWVRQAPGKGLEWVASISSSSSYIYYADSVKGRFTISRDNSKNRLYLQMNSLRAEDTAVYYCARRYYGFNYPFDYWGQGTMVTVSS VL: DTQLTQSPSSLSASVGQRVTITCGASKSVRTYMHWYQQKPGKQPKLLIYSASNLEAGVPSRFSGSGSGTDFTLTISSLQPEDFATYYCQQSNEPPYTFGQGTKLEIKR | EC50 (read off the curve) | ~0.03 µg/mL

Read the next record carefully.
Task item: Query: EC50 (read off the curve); subject: humanized anti-SIRPA antibody hD13_H2L3 (antibody, human IgG4 S228P, kappa, F234A L235A, V domains shown, hH2 heavy chain (IgG4proFALA) and hL3 kappa light chain; also called H2L3 antibody) VH: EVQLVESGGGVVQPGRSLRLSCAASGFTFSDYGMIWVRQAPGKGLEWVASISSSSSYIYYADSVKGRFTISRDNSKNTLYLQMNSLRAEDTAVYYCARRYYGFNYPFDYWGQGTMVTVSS VL: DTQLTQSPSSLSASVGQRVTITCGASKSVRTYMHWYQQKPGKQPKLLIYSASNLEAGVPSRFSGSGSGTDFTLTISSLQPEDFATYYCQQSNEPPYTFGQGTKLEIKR
Reply: ~0.03 µg/mL
